Reported GI50 by item:
method.description: Cytotoxicity against human BxPC3 cells assessed as growth inhibition after 48 hrs by sulforhodamine B assay
Format: functional
condition.set: BXPC-3, 48 h

smi | result.units | result.qualifier | GI50
C[C@H](C/C=C/C(C)(C)O)[C@H]1CC[C@@]2(C)C3=C(CC[C@]12C)[C@@]1(C)CC[C@H](O)C(C)(C)[C@@H]1CC3 | µg/mL | = | 1.8
C[C@@H](C/C=C/C(C)(C)O)[C@H]1CC[C@@]2(C)C3=C(C(=O)C[C@@]12C)[C@@]1(C)CC[C@H](O)C(C)(C)[C@@H]1CC3 | µg/mL | > | 1
C[C@H](C/C=C/C(C)(C)O)[C@@H]1CC[C@]2(C)C3=C(CC[C@@]12C)[C@@]1(C)CC[C@H](O)C(C)(C)[C@@H]1CC3 | µg/mL | = | 1.8

---

method.description: Cytotoxicity against human BxPC3 cells assessed as growth inhibition after 48 hrs by sulforhodamine B assay
Format: functional
condition.set: BXPC-3, 48 h
Reported GI50 by item:
measured.metric: GI50 (µg/mL)

compound | result.number
C=C(C)[C@H](O)CC[C@H](C)[C@@H]1CC=C2[C@]3(C)CC[C@H]4C(C)(C)[C@@H](O)CC[C@]4(C)[C@H]3CC[C@]21C | 0.2
C=C(C)[C@@H](O)CC[C@H](C)[C@@H]1CC=C2[C@]3(C)CC[C@H]4C(C)(C)[C@@H](O)CC[C@]4(C)[C@H]3CC[C@]21C | 0.83
C=C(C)C(O)CC[C@@H](C)[C@@H]1CC[C@]2(C)C3=C(CC[C@@]12C)[C@@]1(C)CC[C@H](O)C(C)(C)[C@@H]1CC3 (stereo partly drawn) | 1.5

---

method.description: Cytotoxicity against human MCF7 cells assessed as growth inhibition after 48 hrs by sulforhodamine B assay
Type: functional
condition.set: MCF7, 48 h
Reported GI50 by item:
measured.metric: GI50

compound | measured.metric | result
C=C(C)[C@@H](O)CC[C@H](C)[C@@H]1CC=C2[C@]3(C)CC[C@H]4C(C)(C)[C@@H](O)CC[C@]4(C)[C@H]3CC[C@]21C | GI50 | 0.79 mg/L
C[C@H](C/C=C/C(C)(C)O)[C@H]1CC[C@@]2(C)C3=C(CC[C@]12C)[C@@]1(C)CC[C@H](O)C(C)(C)[C@@H]1CC3 | GI50 | 2 mg/L
C[C@@H](C/C=C/C(C)(C)O)[C@H]1CC[C@@]2(C)C3=C(C(=O)C[C@@]12C)[C@@]1(C)CC[C@H](O)C(C)(C)[C@@H]1CC3 | GI50 | > 1 mg/L
C=C(C)C(O)CC[C@@H](C)[C@@H]1CC[C@]2(C)C3=C(CC[C@@]12C)[C@@]1(C)CC[C@H](O)C(C)(C)[C@@H]1CC3 (stereo partly specified) | GI50 | 2.5 mg/L
C=C(C)[C@H](O)CC[C@H](C)[C@@H]1CC=C2[C@]3(C)CC[C@H]4C(C)(C)[C@@H](O)CC[C@]4(C)[C@H]3CC[C@]21C | GI50 | 0.68 mg/L
C[C@H](C/C=C/C(C)(C)O)[C@@H]1CC[C@]2(C)C3=C(CC[C@@]12C)[C@@]1(C)CC[C@H](O)C(C)(C)[C@@H]1CC3 | GI50 | 2.1 mg/L
